Biological target: HumRADA2 (Pyrococcus furiosus, UniProt O74036, D220A/DEL288-314/E219S/I169M/K221M/V202Y/Y201A)
Assay: Isothermal titration calorimetry (ITC), direct binding to HumRADA2
Conditions: ITC against apo protein, in the absence of 5 c; read-out: KD
measured quantity: Kd (nM)
Just the number please, in nM, no unit attached.

Tell me the measured Kd of Nc1ncnc2c1ncn2[C@@H]1O[C@H](COP(=O)(O)OP(=O)(O)OP(=O)(O)O)[C@@H](O)[C@H]1O [ATP, reference compound] , please. 2500

====

Target: HumRADA2 (Pyrococcus furiosus, UniProt O74036, D220A/DEL288-314/E219S/I169M/K221M/V202Y/Y201A)
Assay: Isothermal titration calorimetry (ITC), direct binding to HumRADA2
Conditions: substituted tryptamine series (Table 2)
Hi there, I'd appreciate the recorded LE (ligand efficiency) for every entry that follows.

Endpoint output: LE (ligand efficiency) of Cn1cnc(S(=O)(=O)NCCc2c[nH]c3ccccc23)c1 . Value? 0.22 kcal mol−1 per heavy atom

Need LE (ligand efficiency) of O=[N+]([O-])c1cccc(S(=O)(=O)NCCc2c[nH]c3ccccc23)c1 , thanks. 0.27 kcal mol−1 per heavy atom

Please look up its LE (ligand efficiency): O=S(=O)(NCCc1c[nH]c2ccccc12)c1ccco1 0.32 kcal mol−1 per heavy atom

Consider the molecule shown here: O=S(=O)(NCCc1c[nH]c2ccccc12)c1cccs1 What is its recorded LE (ligand efficiency)? 0.33 kcal mol−1 per heavy atom

Which LE (ligand efficiency) is reported for this molecule? O=S(=O)(NCCc1c[nH]c2ccccc12)c1ccc(Br)cc1 0.25 kcal mol−1 per heavy atom

Recorded LE (ligand efficiency) of O=S(=O)(NCCc1c[nH]c2ccccc12)c1cc2ccccc2s1 , please. 0.33 kcal mol−1 per heavy atom

====

Target: HumRADA2 (Pyrococcus furiosus, UniProt O74036, D220A/DEL288-314/E219S/I169M/K221M/V202Y/Y201A)
Experiment: Isothermal titration calorimetry (ITC), direct binding to HumRADA2
Details: tryptophan ester series (Table 1)
From the text: We previously published fragment-screening results using a humanised RAD51 surrogate from Pyrococcus furiosus, which we refer to as HumRADA2 (previously referred to as MAYSAM RadA).[23] In this surrogate protein, the N-terminal domain with the oligomerisation sequence was removed to monomerise the protein and expose the FxxA binding site for screening, and six surface residues were mutated around the Phe pocket in order to humanise the protein in this region. Supplemental Experimental Procedures […]
measured quantity: LE (ligand efficiency) (kcal mol−1 per heavy atom)
Please state the figure in kcal mol−1 per heavy atom; there is no need to write the unit.

Entry Cc1ccc(CCOC(=O)C(N)Cc2c[nH]c3ccccc23)cc1 (stereo not shown) [5 j] has what LE (ligand efficiency)? 0.26

Could you tell me which LE (ligand efficiency) is on file for Cl.N[C@@H](Cc1c[nH]c2ccccc12)C(=O)OCCc1ccccc1F [5 f] ? 0.26

Look at this compound and give its reported LE (ligand efficiency). CC(=O)N[C@@H](Cc1c[nH]c2ccccc12)C(=O)OCCc1ccccc1F [6 b] 0.25

What does the data say about its LE (ligand efficiency)? Entry: Cl.N[C@@H](Cc1c[nH]c2ccccc12)C(=O)OCCC1CCCCC1 [5 m] 0.27

What value of measured LE (ligand efficiency) is listed for Cl.N[C@@H](Cc1c[nH]c2ccccc12)C(=O)OCCc1ccccc1O [5 g] ? 0.26

Fill blank: measured LE (ligand efficiency) of the compound CNC(=O)C(N)Cc1c[nH]c2ccccc12 (stereo not shown) [compound 2] is ____. 0.24

For the compound shown here, COC(=O)[C@@H](N)Cc1c[nH]c2ccccc12 [compound 1, L-tryptophan methyl ester] , give the reported LE (ligand efficiency). 0.28
